# Measurement target: human emopamil binding protein and human 7-dehydrocholesterol reductase co-expressing cells (hEBP-DHCR7 membrane) (Homo sapiens (Human), UniProt Q15125)
# Sequence (Q15125 whole entry): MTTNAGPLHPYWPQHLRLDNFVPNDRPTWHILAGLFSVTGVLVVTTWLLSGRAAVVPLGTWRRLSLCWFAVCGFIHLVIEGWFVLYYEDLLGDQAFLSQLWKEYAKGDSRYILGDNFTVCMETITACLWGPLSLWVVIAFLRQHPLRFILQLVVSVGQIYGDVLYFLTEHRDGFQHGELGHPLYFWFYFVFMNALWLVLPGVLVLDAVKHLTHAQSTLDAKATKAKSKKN
Quantity kind: Ki (µM)

Worked examples follow.
{"columns": ["Molecule", "Ki / µM"],
 "data": [
  ["O=S1(=O)CC2(CCN([C@H]3CC[C@@H](c4cnc(C(F)(F)F)c(F)c4)CC3)C2)C1 [Compound 72B]", 0.026],
  ["O=S1(=O)CC2(CCN([C@@H]3CC[C@@H](c4ccc(C(F)(F)F)nc4)C3)CC2)C1 (single isomer, unassigned) [57B*]", 0.2],
  ["CC(C)n1cc(C(F)(F)F)nc1[C@H]1CC[C@H](N2CCC3(C2)CS(=O)(=O)C3)C1 (single isomer, unassigned) [20A*]", 0.53]
]}

(P) Cn1nc(C(F)(F)F)cc1[C@H]1CC[C@H](N2CC[C@@]3(CCS(=O)(=O)C3)C2)CC1 (single isomer, unassigned) [38D*]
(Q) O=S1(=O)CC2(CCN([C@H]3CC[C@H](c4ncc(C(F)(F)F)cc4Cl)CC3)C2)C1 [Compound 48A]
(R) O=S1(=O)CC2(CCN([C@H]3CC[C@@H](c4ccc(C(F)(F)F)nc4)CC3)CC2)C1 [81B*]
(S) O=S1(=O)CC2(CCN([C@H]3CC[C@H](c4ccc(C(F)(F)F)nc4)C3)CC2)C1 (single isomer, unassigned) [57D*]
(T) O=S1(=O)CC2(CCN([C@H]3CC[C@H](c4ccc(F)c(F)c4)CC3)C2)C1 [Compound 70A]
Q) Sort these molecules on Ki so the largest reading comes first. Respond with an ordered listing of the labels, as requested.
A) R, S, P, Q, T
